This listing pairs binders with measured EC50 of cell killing, BxPC3 cells, anti-kappa-ETA' assay.
- System under test: membrane-bound tissue factor (TF) on cells (human, UniProt P13726 33-295)
- Assay explanation: cell-based or functional assay
Record the result as a number with its unit.

Illustrative cases are given below, each with its answer.
Binder	Meas value
Anti-TF HuMab 111 (antibody, IgG1, V domains shown, full length, fully human monoclonal IgG1,kappa) VH: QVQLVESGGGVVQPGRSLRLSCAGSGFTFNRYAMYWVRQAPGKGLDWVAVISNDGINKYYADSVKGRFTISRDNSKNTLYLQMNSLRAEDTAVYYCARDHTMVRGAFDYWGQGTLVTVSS VL: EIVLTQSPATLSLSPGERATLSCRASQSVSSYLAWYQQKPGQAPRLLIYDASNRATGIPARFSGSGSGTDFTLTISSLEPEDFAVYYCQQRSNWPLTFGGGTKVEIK	15 ng/mL
Anti-TF HuMab 098 (antibody, IgG1, V domains shown, full length, fully human monoclonal IgG1,kappa; also called HuMab-TF-098) VH: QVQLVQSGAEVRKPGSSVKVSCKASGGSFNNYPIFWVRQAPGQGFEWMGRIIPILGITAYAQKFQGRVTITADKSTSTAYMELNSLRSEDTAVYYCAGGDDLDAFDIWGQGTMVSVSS VL: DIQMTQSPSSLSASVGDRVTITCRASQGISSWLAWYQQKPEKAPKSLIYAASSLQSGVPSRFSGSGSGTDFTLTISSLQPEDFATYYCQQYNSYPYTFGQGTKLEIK	0.013 ng/mL
HuMab-TF-013 (antibody, V domains shown) VH: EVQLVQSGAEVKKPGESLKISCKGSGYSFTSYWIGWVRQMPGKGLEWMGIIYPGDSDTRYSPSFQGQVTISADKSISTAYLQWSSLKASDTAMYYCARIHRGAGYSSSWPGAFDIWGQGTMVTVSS VL: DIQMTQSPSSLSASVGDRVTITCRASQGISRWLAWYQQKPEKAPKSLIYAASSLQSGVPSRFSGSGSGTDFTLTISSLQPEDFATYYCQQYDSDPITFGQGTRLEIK	9.4 ng/mL

Lab note: next binder to report on.
Q: Bench note: what EC50 of cell killing, BxPC3 cells, anti-kappa-ETA' assay did Anti-TF HuMab 011 (antibody, IgG1, V domains shown, full length, fully human monoclonal IgG1,kappa; also called HuMab-TF-011) VH: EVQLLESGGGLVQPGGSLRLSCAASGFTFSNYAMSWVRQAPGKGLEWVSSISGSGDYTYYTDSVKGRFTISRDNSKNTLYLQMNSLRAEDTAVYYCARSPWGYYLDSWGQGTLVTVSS VL: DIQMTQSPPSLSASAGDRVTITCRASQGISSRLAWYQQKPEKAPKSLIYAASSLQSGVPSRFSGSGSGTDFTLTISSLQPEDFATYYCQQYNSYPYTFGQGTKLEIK show?
Ans: 0.26 ng/mL
